Hey, just so you know, these numbers are from patent US20250011363A1.

Below, each of the substances is paired with its reported Binding affinity value.
- subject.of.test: acetylcholine receptor (Homo sapiens, UniProt P02708)
- Sequence (P02708 21-457): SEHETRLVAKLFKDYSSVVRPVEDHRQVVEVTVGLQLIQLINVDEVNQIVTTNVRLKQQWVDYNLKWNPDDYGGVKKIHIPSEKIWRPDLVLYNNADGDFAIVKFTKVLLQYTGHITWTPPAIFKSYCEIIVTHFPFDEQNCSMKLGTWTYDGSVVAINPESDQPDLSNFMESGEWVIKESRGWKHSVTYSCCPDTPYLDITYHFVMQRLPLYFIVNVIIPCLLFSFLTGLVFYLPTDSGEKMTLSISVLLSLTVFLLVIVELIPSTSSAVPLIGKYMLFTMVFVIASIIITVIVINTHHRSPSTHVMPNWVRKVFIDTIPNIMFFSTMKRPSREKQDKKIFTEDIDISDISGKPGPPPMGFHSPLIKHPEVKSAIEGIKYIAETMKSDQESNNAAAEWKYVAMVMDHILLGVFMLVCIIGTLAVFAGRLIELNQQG
- assay.name: SPR binding affinity (RU) of optimized 5mer/6mer/7mer peptides, Examples 6-7
- setup.conditions: SPR, Resonance Units; peptides tested at 10 μM; 6mer-2 Bottom sequence
assay.metric: Binding affinity (Ru)

substance: 6mer-2-601 (KNSHKK)
output.unit: Ru
reported.result: 25
//
substance: 6mer-2-710 (RNKKKK)
output.unit: Ru
reported.result: 14
//
substance: 6mer-2-797 (RHCIKR)
output.unit: Ru
reported.result: 19
//
substance: 6mer-2-660 (RHKDRK)
output.unit: Ru
reported.result: 16
//
substance: 6mer-2-852 (RNCERR)
output.unit: Ru
reported.result: 28
//
substance: 6mer-2-969 (KATHKR)
output.unit: Ru
reported.result: 33
//
substance: 6mer-2-780 (KITIRK)
output.unit: Ru
reported.result: 31
//
substance: 6mer-2-656 (KADPRR)
output.unit: Ru
reported.result: 11

====

- subject.of.test: acetylcholine receptor (Homo sapiens)
- assay.name: SPR binding affinity (RU) of optimized 5mer/6mer/7mer peptides, Examples 6-7
- setup.conditions: SPR, Resonance Units; peptides tested at 10 μM; 6mer-1 Bottom sequence
- Protocol: Based on the frequencies of occurrence of the top 7 amino acids from Table 7 in Example 5, 600 peptides comprising these amino acids (top combinations) and those comprising the 13 less frequently occurring amino acids (bottom combinations) were synthesized for each series of 5mer, 6mer-1, and 6mer-2. The binding affinity of each sequence for the acetylcholine receptor was measured using Surface Plasmon Resonance (SPR) analysis method. The peptides were tested at a concentration of 10 μM. […]
Below, each of the substances is paired with its reported Binding affinity value.

substance: 6mer-1-1032 (KKTSMR)
subject.of.test: acetylcholine receptor (Homo sapiens)
Binding affinity / Ru: 27
--
substance: 6mer-1-1007 (RKPTDR)
subject.of.test: acetylcholine receptor (Homo sapiens)
Binding affinity / Ru: 39
--
substance: 6mer-1-1065 (KRDKAK)
subject.of.test: acetylcholine receptor (Homo sapiens)
Binding affinity / Ru: 23
--
substance: 6mer-1-1159 (RRAWPR)
subject.of.test: acetylcholine receptor (Homo sapiens)
Binding affinity / Ru: 39
--
substance: 6mer-1-1174 (RKDAIR)
subject.of.test: acetylcholine receptor (Homo sapiens)
Binding affinity / Ru: 30
--
substance: 6mer-1-1008 (RKPWAR)
subject.of.test: acetylcholine receptor (Homo sapiens)
Binding affinity / Ru: 21
--
substance: 6mer-1-1132 (RRKAER)
subject.of.test: acetylcholine receptor (Homo sapiens)
Binding affinity / Ru: 31
--
substance: 6mer-1-1019 (KRDAWR)
subject.of.test: acetylcholine receptor (Homo sapiens)
Binding affinity / Ru: 37

====

Below, each of the substances is paired with its reported Binding affinity value.
- subject.of.test: acetylcholine receptor (Homo sapiens, UniProt P02708)
- assay.name: SPR binding affinity (RU) of optimized 5mer/6mer/7mer peptides, Examples 6-7
- setup.conditions: SPR, Resonance Units; peptides tested at 10 μM; 6mer-2 Top sequence
- Protocol: Based on the frequencies of occurrence of the top 7 amino acids from Table 7 in Example 5, 600 peptides comprising these amino acids (top combinations) and those comprising the 13 less frequently occurring amino acids (bottom combinations) were synthesized for each series of 5mer, 6mer-1, and 6mer-2. The binding affinity of each sequence for the acetylcholine receptor was measured using Surface Plasmon Resonance (SPR) analysis method. The peptides were tested at a concentration of 10 μM. […]

substance: 6mer-2-502 (KSFCKR)
output.unit: Ru
Binding affinity: 144

substance: 6mer-2-583 (KSVTKK)
output.unit: Ru
Binding affinity: 154

substance: 6mer-2-491 (KRICKR)
output.unit: Ru
Binding affinity: 135

substance: 6mer-2-416 (RWRLRR)
output.unit: Ru
Binding affinity: 131

substance: 6mer-2-481 (RQRYKK)
output.unit: Ru
Binding affinity: 131

substance: 6mer-2-552 (RGLLRR)
output.unit: Ru
Binding affinity: 148

substance: 6mer-2-440 (KQLSKK)
output.unit: Ru
Binding affinity: 153

substance: 6mer-2-566 (KRLSKK)
output.unit: Ru
Binding affinity: 139

substance: 6mer-2-564 (KQVYRK)
output.unit: Ru
Binding affinity: 148

substance: 6mer-2-550 (RSFTKK)
output.unit: Ru
Binding affinity: 148

substance: 6mer-2-419 (RSRYKK)
output.unit: Ru
Binding affinity: 154

substance: 6mer-2-451 (RGRCKK)
output.unit: Ru
Binding affinity: 148

substance: 6mer-2-522 (RVVLRK)
output.unit: Ru
Binding affinity: 124

substance: 6mer-2-421 (KVICRK)
output.unit: Ru
Binding affinity: 124

substance: 6mer-2-449 (RGRCRR)
output.unit: Ru
Binding affinity: 154

substance: 6mer-2-441 (KSQRKR)
output.unit: Ru
Binding affinity: 139

substance: 6mer-2-506 (KSLLKK)
output.unit: Ru
Binding affinity: 135

substance: 6mer-2-536 (RWQRKK)
output.unit: Ru
Binding affinity: 125

substance: 6mer-2-516 (RQQQKK)
output.unit: Ru
Binding affinity: 146

substance: 6mer-2-404 (RVLSKR)
output.unit: Ru
Binding affinity: 121

substance: 6mer-2-508 (RVFLKK)
output.unit: Ru
Binding affinity: 121

substance: 6mer-2-498 (KGLCRR)
output.unit: Ru
Binding affinity: 127

substance: 6mer-2-533 (KRLLKR)
output.unit: Ru
Binding affinity: 142

substance: 6mer-2-434 (RVIRRK)
output.unit: Ru
Binding affinity: 154

substance: 6mer-2-468 (RSFSKR)
output.unit: Ru
Binding affinity: 133

substance: 6mer-2-551 (KWYTKR)
output.unit: Ru
Binding affinity: 141

substance: 6mer-2-556 (RSICKK)
output.unit: Ru
Binding affinity: 148

substance: 6mer-2-519 (KQIQRR)
output.unit: Ru
Binding affinity: 135

substance: 6mer-2-459 (KLFSRK)
output.unit: Ru
Binding affinity: 139

substance: 6mer-2-460 (RSQCRK)
output.unit: Ru
Binding affinity: 139

substance: 6mer-2-594 (RWYRRR)
output.unit: Ru
Binding affinity: 139

substance: 6mer-2-511 (RVFCRR)
output.unit: Ru
Binding affinity: 126

substance: 6mer-2-484 (RWYTKR)
output.unit: Ru
Binding affinity: 148

substance: 6mer-2-560 (RQYTRR)
output.unit: Ru
Binding affinity: 153

substance: 6mer-2-415 (KGRCKK)
output.unit: Ru
Binding affinity: 149

substance: 6mer-2-585 (RSFRRK)
output.unit: Ru
Binding affinity: 136

substance: 6mer-2-509 (RGFYRK)
output.unit: Ru
Binding affinity: 136

substance: 6mer-2-439 (KWFSKR)
output.unit: Ru
Binding affinity: 153

substance: 6mer-2-513 (RRLTRK)
output.unit: Ru
Binding affinity: 121

substance: 6mer-2-482 (KGQTRR)
output.unit: Ru
Binding affinity: 154

substance: 6mer-2-466 (RLLTRR)
output.unit: Ru
Binding affinity: 142

substance: 6mer-2-584 (KRLTRK)
output.unit: Ru
Binding affinity: 148

substance: 6mer-2-444 (RQRLKK)
output.unit: Ru
Binding affinity: 141

substance: 6mer-2-453 (RLVRKK)
output.unit: Ru
Binding affinity: 141

substance: 6mer-2-534 (RVQLRR)
output.unit: Ru
Binding affinity: 139

substance: 6mer-2-470 (RLRRRK)
output.unit: Ru
Binding affinity: 153

substance: 6mer-2-555 (RSVSKK)
output.unit: Ru
Binding affinity: 154

substance: 6mer-2-571 (RGYQRR)
output.unit: Ru
Binding affinity: 135

substance: 6mer-2-474 (RWQQRR)
output.unit: Ru
Binding affinity: 128

substance: 6mer-2-478 (KWYTRK)
output.unit: Ru
Binding affinity: 145

substance: 6mer-2-497 (KSYTRR)
output.unit: Ru
Binding affinity: 148

substance: 6mer-2-587 (KRISKR)
output.unit: Ru
Binding affinity: 148

substance: 6mer-2-527 (RGQTRR)
output.unit: Ru
Binding affinity: 145

substance: 6mer-2-578 (RSVLRK)
output.unit: Ru
Binding affinity: 135

substance: 6mer-2-512 (RWFTRR)
output.unit: Ru
Binding affinity: 148

substance: 6mer-2-420 (RRQYRK)
output.unit: Ru
Binding affinity: 128

substance: 6mer-2-575 (RGYSRK)
output.unit: Ru
Binding affinity: 139

substance: 6mer-2-445 (RLVCKR)
output.unit: Ru
Binding affinity: 145

substance: 6mer-2-471 (KWISRR)
output.unit: Ru
Binding affinity: 136

substance: 6mer-2-463 (KLLTRR)
output.unit: Ru
Binding affinity: 124

substance: 6mer-2-493 (KGVRRK)
output.unit: Ru
Binding affinity: 123

substance: 6mer-2-462 (KQICKR)
output.unit: Ru
Binding affinity: 145

substance: 6mer-2-567 (KLYYRK)
output.unit: Ru
Binding affinity: 146

substance: 6mer-2-418 (RVQYKK)
output.unit: Ru
Binding affinity: 121

substance: 6mer-2-438 (RLLCRK)
output.unit: Ru
Binding affinity: 131

substance: 6mer-2-464 (KSFRKK)
output.unit: Ru
Binding affinity: 135

substance: 6mer-2-408 (KQIYRR)
output.unit: Ru
Binding affinity: 139

substance: 6mer-2-548 (RLQCRR)
output.unit: Ru
Binding affinity: 142

substance: 6mer-2-479 (KWRLKK)
output.unit: Ru
Binding affinity: 154
